Where do these numbers come from? They come from patent US9206432B2.

# Test system: lacZ under control of the tetA promoter (PtetA) in E. coli KM3
# Format: cell-based
# testSettings: Table 4; chlorsulfuron 20 ppm; 48 hrs at 30° C.
endpointLabel: relative β-galactosidase activity, inducer Cs

{"molecule": "L1-22: SU-responsive TetR(B) variant, library L1 hit, SEQ ID NO: 7 (protein, Sulfornylurea responsive repressor L1-22) MGSRLDKSKVINSALELLNEVGIEGLTTRKLAQKLGVEQPTLYWHVKNKRALLDALAIEMMDRHHTHFCPLEGESWQDFLRNTAKSYRCALLSHRDGAKVCLGTAITEKQYETKENNLAFLCQQGFSLENALYARQAVRVFTLGCVLFDQEMQVAKEERETPTTDSMPPLLRQASELLDHQGAEPAFLFGLELIICGLEKQLKSESGS", "valueReported": 0.2}
